This collection of values is drawn from paper PMC3646771.

# Tested on: CB2-Cter (Cter)
# Construct: gene CNR2; Flag-tagged CB2 with C-terminal tail replaced by that of CB1; HEK293
# ASSAY_NAME: CRE-luciferase cAMP reporter, HEK293
# Assay type: cell-based, Homo sapiens
# CONDITION_LABEL: agonist; inhibition of cAMP elevated by 10 µM forskolin, 4 h, 37 °C; pEC50 8.23±0.03
PROPERTY_NAME: EC50 (nM)
Please reply with the bare figure in nM and do not write the unit itself.

Query: Need EC50 of Cc1c(C(=O)c2cccc3ccccc23)c2cccc3c2n1[C@H](CN1CCOCC1)CO3 , thanks.
Reply: 5.9

----------
# Tested on: CB2-Cter (Cter)
# Construct: gene CNR2; Flag-tagged CB2 with C-terminal tail replaced by that of CB1; HEK293
# ASSAY_NAME: CRE-luciferase cAMP reporter, HEK293
# Type: cell-based, Homo sapiens
# CONDITION_LABEL: agonist; P139LCter; stimulation of cAMP, no forskolin, 4 h, 37 °C; pEC50 7.53±0.11
PROPERTY_NAME: EC50 (nM)
Give the number; nM is assumed, so skip it.

Query: Value lookup for EC50; key = Cc1c(C(=O)c2cccc3ccccc23)c2cccc3c2n1[C@H](CN1CCOCC1)CO3
Reply: 29.8

----------
# Test system: CB2-ICL1 (i1)
# Construct: gene CNR2; Flag-tagged CB2 with first intracellular loop replaced by that of CB1; HEK293
# ASSAY_NAME: CRE-luciferase cAMP reporter, HEK293
# Type: cell-based, Homo sapiens
# CONDITION_LABEL: agonist; inhibition of cAMP elevated by 10 µM forskolin, 4 h, 37 °C; pEC50 8.17±0.19
# Excerpt: CRE-luciferase cAMP reporter, HEK293 on CB2-ICL1 (i1)
PROPERTY_NAME: EC50 (nM)
Unit nM implied. Number only.

Query: Which EC50 reading was recorded for the compound Cc1c(C(=O)c2cccc3ccccc23)c2cccc3c2n1[C@H](CN1CCOCC1)CO3 [WIN55,212-2] ?
Reply: 8

----------
# System: CB2-ICL2ICL3 (i2i3)
# Construct: gene CNR2; Flag-tagged CB2 with second and third intracellular loops of CB1; HEK293
# ASSAY_NAME: CRE-luciferase cAMP reporter, HEK293
# Assay type: cell-based, Homo sapiens
# CONDITION_LABEL: agonist; inhibition of cAMP elevated by 10 µM forskolin, 4 h, 37 °C; pEC50 8.47±0.15
PROPERTY_NAME: EC50 (nM)
Entry rule: numbers only, all in nM.

Query: Could you tell me which EC50 is on file for Cc1c(C(=O)c2cccc3ccccc23)c2cccc3c2n1[C@H](CN1CCOCC1)CO3 ?
Reply: 3.8
